Molecular target: human CYP11B1 (Homo sapiens)
Construct: expressed in transfected cells
Sequence (P15538 25-503): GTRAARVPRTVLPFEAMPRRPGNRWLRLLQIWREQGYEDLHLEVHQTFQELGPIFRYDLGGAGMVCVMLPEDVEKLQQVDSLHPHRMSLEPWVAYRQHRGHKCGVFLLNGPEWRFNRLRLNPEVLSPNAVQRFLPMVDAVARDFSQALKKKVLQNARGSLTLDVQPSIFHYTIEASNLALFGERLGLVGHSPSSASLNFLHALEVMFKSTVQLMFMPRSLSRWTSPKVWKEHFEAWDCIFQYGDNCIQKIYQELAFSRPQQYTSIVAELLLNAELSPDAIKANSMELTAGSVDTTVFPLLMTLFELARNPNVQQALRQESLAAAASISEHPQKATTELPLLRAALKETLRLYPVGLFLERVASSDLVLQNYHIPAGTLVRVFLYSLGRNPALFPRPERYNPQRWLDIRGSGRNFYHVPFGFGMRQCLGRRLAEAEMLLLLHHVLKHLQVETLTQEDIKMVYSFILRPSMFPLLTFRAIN
Assay: G-402 cellular enzyme assay, human CYP11B1 (cortisol release, HTRF)
Format: cell-based
Conditions: G-402 cells expressing human CYP11B1; 1 μM Deoxycortisol; 16 h
metric: EC50 (nM)

Would you please look over these solved cases?
- compound: "N#Cc1ccc(-n2cncc2C(=O)c2ccc(Cl)c(Cl)c2)cc1Cl"
  metric: "EC50"
  numericResult: 145
- compound: "O=C(c1ccc(Cl)c(F)c1)c1cncn1-c1ccc(Cl)cc1"
  metric: "EC50"
  numericResult: 132
- compound: "Cn1cncc1C(=O)c1ccc(F)cc1"
  metric: "EC50"
  numericResult: 151
- compound: "CCC(C)n1cncc1C(=O)c1cccc(C#N)c1 (stereo not shown)"
  metric: "EC50"
  numericResult: 78.2
- compound: "CCn1cncc1C(=O)c1ccc(Cl)cc1"
  metric: "EC50"
  numericResult: 65.9

1. CCn1cncc1C(=O)c1ccc(SC)c(OC)c1
2. CC(C)n1cncc1C(=O)c1ccc2c(c1)CCC(=O)N2C
Task: Which has the higher EC50, 1 or 2 ? Let me know the label of the one you choose.
Output: 2

====

Target: human CYP11B1 (Homo sapiens)
Sequence (P15538 25-503): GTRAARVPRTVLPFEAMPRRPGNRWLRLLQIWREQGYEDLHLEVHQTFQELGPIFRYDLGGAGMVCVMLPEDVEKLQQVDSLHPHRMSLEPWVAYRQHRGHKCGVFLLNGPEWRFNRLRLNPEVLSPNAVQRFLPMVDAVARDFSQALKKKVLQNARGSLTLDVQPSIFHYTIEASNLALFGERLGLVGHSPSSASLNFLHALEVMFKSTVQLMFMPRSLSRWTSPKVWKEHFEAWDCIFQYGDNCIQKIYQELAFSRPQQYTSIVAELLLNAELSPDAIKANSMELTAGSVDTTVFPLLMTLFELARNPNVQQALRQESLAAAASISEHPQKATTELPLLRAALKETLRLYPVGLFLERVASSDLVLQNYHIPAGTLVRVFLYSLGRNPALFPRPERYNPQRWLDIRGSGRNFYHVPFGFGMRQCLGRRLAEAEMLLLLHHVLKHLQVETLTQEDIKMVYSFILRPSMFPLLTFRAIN
Experiment: G-402 cellular enzyme assay, human CYP11B1 (cortisol release, HTRF)
Conditions: G-402 cells expressing human CYP11B1; 1 μM Deoxycortisol; 16 h
Source text: Herein we identified the use of the G-402 cell line as a host cell to ectopically express (transiently or stably) enzymes of the CYP11 family. […] Importantly, the identified cell line G-402 expresses co-factors (adrenodoxin and adrenodoxin reductase) important for the activity of the CYP11 family, and no relevant enzyme activity of the CYP11 family (in comparison to H295R cells) was detected in these cells. […]
metric: EC50 (nM)

Would you please look over these solved cases?
- compound: "COc1cc(C(=O)c2cncn2C2CC2)ccc1SC [Example 62]"
  assayTarget: "human CYP11B1 (Homo sapiens)"
  valueUnit: "nM"
  EC50: 46.1
- compound: "CCn1cncc1C(=O)c1ccc(Cl)c(Cl)c1 [Example 15]"
  assayTarget: "human CYP11B1 (Homo sapiens)"
  valueUnit: "nM"
  EC50: 20

A. O=C(c1ccc(F)c(F)c1)c1cncn1-c1ccc(Cl)cc1 [Example 97]
B. CC(C)n1cncc1C(=O)c1ccc(Cl)cc1 [Example 13]
C. O=C(c1ccc(F)c(Cl)c1)c1cncn1C1CC1 [Example 41]
Task: Please produce an ascending ranking of these compounds based on EC50. Reply with the labels, ordered as the question asks.
Output: B, C, A

FYI, the data here is from patent US9464058B2.
